Tested on: pigweed
Experiment: Test C pre-/postemergence herbicide test
Assay type: in vivo, Amaranthus retroflexus
Settings: Preemergence, 250 g ai/ha
Source text: […]
Label fulfilled when Plant response rating (scale of 0 to 100), Pigweed is at or above 40; anything below gets not fulfilled.

Observe how each entry below is paired with its result.
Molecule: O=C1NCC(c2ccc(C(F)(F)F)nc2)C1C(=O)Nc1ccccc1F (racemic)
Class Name: not fulfilled
--
Molecule: O=C1NCC(c2cccc(C(F)(F)F)c2)C1C(=O)Nc1ccccc1Cl (stereo not drawn)
Class Name: fulfilled
--
Molecule: O=C1NCC(c2ccc(C(F)(F)F)c(F)c2)C1C(=O)Nc1ccccc1F (racemic)
Class Name: fulfilled
--
Molecule: O=C1NCC(c2cc(F)cc(F)c2)C1C(=O)Nc1ccc(F)cc1F (racemic)
Class Name: not fulfilled

Okay, now this molecule:
Lookup: Could you please find out whether O=C1NCC(c2cccc(OC(F)F)c2)C1C(=O)Nc1ccccc1F (stereo not drawn) has Plant response rating (scale of 0 to 100), Pigweed that meets 40 or exceeds it?
Found: not fulfilled
